read-out: Phosphatase and tensin (PTEN), PTEN (gene 5728); experiment: LTEA_HepaRG_PTEN: Life Technologies and Expression Analysis (LTEA) Assay for Phosphatase and tensin (PTEN) using HepaRG (AID 2283523); conditions: mRNA level, 48 h; actives raise or lower the signal
Active and inactive are the calls of the source. Rule for the calls: active = hit-call score of the fitted dose curve at least 0.9, where 1 is the maximum; inactive = score below 0.9.
The reply should name one outcome from active, inactive

Answer briefly: the call reported for ClCCOCCCl in this assay. inactive

And then Cc1cccc(N)c1N , what is it? inactive

And then Cc1ccc(N)cc1 , what is it? inactive

And then CN(C)c1ccccc1 , what is it? inactive

And then OCCOCCO , what is it? inactive

And then c1ccc2c(c1)-c1cccc3cccc-2c13 , what is it? inactive

And then CC(C)(C)OOC(=O)c1ccccc1 , what is it? inactive

And then CNC(=O)Oc1cccc2c1OC(C)(C)C2 , what is it? inactive

And then CC(O)CCO (stereo not given) , what is it? inactive

And then Clc1ccc(Cl)c(Cl)c1 , what is it? inactive

And then COC(=O)c1ccccc1N , what is it? inactive

And then c1ccc(C2CO2)cc1 (stereo not given) , what is it? inactive

And then CCOc1cccc(C2(N3CCN(c4ccccc4)CC3)CCC(C)CC2)c1 (stereo not given) , what is it? inactive

And then O=C(O)C1C2CCC(O2)C1C(=O)O (stereo not given) , what is it? inactive

And then COc1cc(C=O)cc2c1[C@H](COC(N)=O)[C@]1(OC(C)=O)ON2C[C@H]2[C@@H]1N2C(C)=O , what is it? active
